The following compounds are shown together with reported MIC values.
Tested on: Msm 700084
PROCEDURE TEXT: microbe, parasite or virus in culture
Assay type: cell-based
MEASUREMENT CONTEXT: Mycolicibacterium smegmatis, 700084; read-out: MIC Msm 700084
*1 amine or outer side, *2 acyl side, *3 side chain or, on linkers, in order; H or OH if unused. Where a SMILES comes first, the peptide text is derived from it. [ ]: non-standard residue; d: D form. X3 = C#CCOc1ccc([C@@H](OC)[C@H](N[*:1])C(=O)[*:2])cc1; X2 = C#CCn1cc(C[C@@H](C(=O)[*:2])N(C)[*:1])c2ccccc21; NMeTrp(1-Me) = CN[C@@H](Cc1cn(C)c2ccccc12)C(=O)O; X1 = C#CCn1cc(C[C@H](N[*:1])C(=O)[*:2])c2ccccc21; NMeLeu(5-OH,4R) = CN[C@@H](C[C@@H](C)CO)C(=O)O; Phe(βR-OMe) = CO[C@H](c1ccccc1)[C@H](N)C(=O)O; Trp(1-Me) = Cn1cc(C[C@H](N)C(=O)O)c2ccccc21; NMeL = CN[C@@H](CC(C)C)C(=O)O
Reply with just the number (in µM).

Worked examples, 3 compounds total:
COMPOUND	ASSAYED SYSTEM	MEASURE UNIT	MIC
CO[C@H](c1ccccc1)[C@@H]1NC(=O)[C@H](C)NC(=O)[C@H](C[C@@H](C)CO)N(C)C(=O)[C@H](Cc2cn(Cc3cn(CCOCCOCCOCCOCCn4cc(Cn5cc(C[C@H]6C(=O)N(C)[C@@H](C[C@@H](C)CO)C(=O)N[C@@H](C)C(=O)N[C@@H]([C@H](OC)c7ccccc7)C(=O)N[C@@H](C(C)C)C(=O)N(C)[C@@H](CC(C)C)C(=O)N[C@@H](C(C)C)C(=O)N6C)c6ccccc65)nn4)nn3)c3ccccc23)N(C)C(=O)[C@H](C(C)C)NC(=O)[C@H](CC(C)C)N(C)C(=O)[C@H](C(C)C)NC1=O	Msm 700084	µM	0.8
C#CCn1cc(C[C@H]2C(=O)N(C)[C@@H](C[C@@H](C)CO)C(=O)N[C@@H](C)C(=O)N[C@@H]([C@H](OC)c3ccccc3)C(=O)N[C@@H](C(C)C)C(=O)N(C)[C@@H](CC(C)C)C(=O)N[C@@H](C(C)C)C(=O)N2C)c2ccccc21 [Compound 26] (cyclo(A[Phe(βR-OMe)]V[NMeL]V[X2][NMeLeu(5-OH,4R)]))	Msm 700084	µM	12.5
C#CCn1cc(C[C@@H]2NC(=O)[C@H](C(C)C)NC(=O)[C@H](CC(C)C)N(C)C(=O)[C@H](C(C)C)NC(=O)[C@H]([C@H](OC)c3ccccc3)NC(=O)[C@H](C)NC(=O)[C@H](C[C@@H](C)CO)N(C)C2=O)c2ccccc21 [Compound 5] (cyclo(A[Phe(βR-OMe)]V[NMeL]V[X1][NMeLeu(5-OH,4R)]))	Msm 700084	µM	6.3

Identify MIC associated with the compound C#CCOc1ccc([C@@H](OC)[C@@H]2NC(=O)[C@H](C)NC(=O)[C@H](C[C@@H](C)CO)N(C)C(=O)[C@H](Cc3cn(C)c4ccccc34)NC(=O)[C@H](C(C)C)NC(=O)[C@H](CC(C)C)N(C)C(=O)[C@H](C(C)C)NC2=O)cc1 [SI-38] (cyclo(A[X3]V[NMeL]V[Trp(1-Me)][NMeLeu(5-OH,4R)]))
12.5

Identify MIC associated with the compound CO[C@H](c1ccccc1)[C@@H]1NC(=O)[C@H](C)NC(=O)[C@H](C[C@@H](C)CO)N(C)C(=O)[C@H](Cc2cn(C)c3ccccc23)N(C)C(=O)[C@H](CCC(=O)N(C)C)NC(=O)[C@H](CC(C)C)N(C)C(=O)[C@H](C(C)C)NC1=O [SI-76] (cyclo(A[Phe(βR-OMe)]V[NMeL]E(NMe2)[NMeTrp(1-Me)][NMeLeu(5-OH,4R)]))
25

====

System: Salmonella typhimurium
PROCEDURE TEXT: MIC ESKAPES panel, Salmonella typhimurium
Assay type: cell-based
MEASUREMENT CONTEXT: Salmonella enterica, TYPHIMURIUM; Gram negative; n = 3 well replicates
*1 amine or outer side, *2 acyl side, *3 side chain or, on linkers, in order; H or OH if unused. Where a SMILES comes first, the peptide text is derived from it. [ ]: non-standard residue; d: D form. X1 = C#CCn1cc(C[C@H](N[*:1])C(=O)[*:2])c2ccccc21; NMeLeu(5-OH,4R) = CN[C@@H](C[C@@H](C)CO)C(=O)O; Phe(βR-OMe) = CO[C@H](c1ccccc1)[C@H](N)C(=O)O; Trp(1-Me) = Cn1cc(C[C@H](N)C(=O)O)c2ccccc21; NMeL = CN[C@@H](CC(C)C)C(=O)O; Pra = C#CC[C@H](N)C(=O)O
QUANTITY MEASURED: MIC

COMPOUND	MIC
COC(c1ccccc1)C1NC(=O)C(C)NC(=O)C(CC(C)CO)N(C)C(=O)C(Cc2cn(Cc3cn(CCOCCOCCOCCOCCn4cc(Cn5cc(CC6NC(=O)C(C(C)C)NC(=O)C(CC(C)C)N(C)C(=O)C(C(C)C)NC(=O)C(C(OC)c7ccccc7)NC(=O)C(C)NC(=O)C(CC(C)CO)N(C)C6=O)c6ccccc65)nn4)nn3)c3ccccc23)NC(=O)C(C(C)C)NC(=O)C(CC(C)C)N(C)C(=O)C(C(C)C)NC1=O (centres unmarked)	> 50 µM
COC(c1ccccc1)C1NC(=O)C(C)NC(=O)C(CC(C)CO)N(C)C(=O)C(Cc2cn(C)c3ccccc23)NC(=O)C(Cc2cn(CCCCCn3cc(CC4NC(=O)C(CC(C)C)N(C)C(=O)C(C(C)C)NC(=O)C(C(OC)c5ccccc5)NC(=O)C(C)NC(=O)C(CC(C)CO)N(C)C(=O)C(Cc5cn(C)c6ccccc56)NC4=O)nn3)nn2)NC(=O)C(CC(C)C)N(C)C(=O)C(C(C)C)NC1=O (centres unmarked)	> 50 µM
C#CC[C@@H]1NC(=O)[C@H](CC(C)C)N(C)C(=O)[C@H](C(C)C)NC(=O)[C@H]([C@H](OC)c2ccccc2)NC(=O)[C@H](C)NC(=O)[C@H](C[C@@H](C)CO)N(C)C(=O)[C@H](Cc2cn(C)c3ccccc23)NC1=O [Compound 10] (cyclo(A[Phe(βR-OMe)]V[NMeL][Pra][Trp(1-Me)][NMeLeu(5-OH,4R)]))	> 50 µM

Identify MIC associated with the compound C#CCn1cc(C[C@@H]2NC(=O)[C@H](C(C)C)NC(=O)[C@H](CC(C)C)N(C)C(=O)[C@H](C(C)C)NC(=O)[C@H]([C@H](OC)c3ccccc3)NC(=O)[C@H](C)NC(=O)[C@H](C[C@@H](C)CO)N(C)C2=O)c2ccccc21 [Compound 5] (cyclo(A[Phe(βR-OMe)]V[NMeL]V[X1][NMeLeu(5-OH,4R)]))
> 50 µM

Identify MIC associated with the compound COc1c(N2C[C@@H]3CCCN[C@@H]3C2)c(F)cc2c(=O)c(C(=O)O)cn(C3CC3)c12 [Moxifloxacin, reference compound]
0.6 µM

====

The following compounds are shown together with reported koff values.
ASSAYED SYSTEM: ClpC1 NTD protein (M. tuberculosis) (Mycobacterium tuberculosis, UniProt P9WPC9)
Sequence (P9WPC9 1-156, looked up, natural form): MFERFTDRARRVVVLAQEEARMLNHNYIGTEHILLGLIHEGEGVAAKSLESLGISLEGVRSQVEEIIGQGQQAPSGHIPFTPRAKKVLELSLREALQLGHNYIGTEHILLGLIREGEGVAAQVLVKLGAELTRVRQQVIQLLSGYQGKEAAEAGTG
PROCEDURE TEXT: biochemical
Type: binding
MEASUREMENT CONTEXT: SPR, single independent measurements; read-out: koff ClpC1-NTD
*1 amine or outer side, *2 acyl side, *3 side chain or, on linkers, in order; H or OH if unused. Where a SMILES comes first, the peptide text is derived from it. [ ]: non-standard residue; d: D form. X3 = C#CCOc1ccc([C@@H](OC)[C@H](N[*:1])C(=O)[*:2])cc1; NMeTrp(1-Me) = CN[C@@H](Cc1cn(C)c2ccccc12)C(=O)O; X1 = C#CCn1cc(C[C@H](N[*:1])C(=O)[*:2])c2ccccc21; X7 = C=CCn1cc(C[C@H](N[*:1])C(=O)[*:2])c2ccccc21; NMeLeu(5-OH,4R) = CN[C@@H](C[C@@H](C)CO)C(=O)O; Phe(βR-OMe) = CO[C@H](c1ccccc1)[C@H](N)C(=O)O; Trp(1-Me) = Cn1cc(C[C@H](N)C(=O)O)c2ccccc21; NMeL = CN[C@@H](CC(C)C)C(=O)O
Reply with just the number (in s⁻¹).

Worked examples, 4 compounds total:
COMPOUND	ASSAYED SYSTEM	OBS VALUE
C#CCn1cc(C[C@@H]2NC(=O)[C@H](C(C)C)NC(=O)[C@H](CC(C)C)N(C)C(=O)[C@H](C(C)C)NC(=O)[C@H]([C@H](OC)c3ccccc3)NC(=O)[C@H](C)NC(=O)[C@H](C[C@@H](C)CO)N(C)C2=O)c2ccccc21 [Compound 5] (cyclo(A[Phe(βR-OMe)]V[NMeL]V[X1][NMeLeu(5-OH,4R)]))	ClpC1 NTD protein (M. tuberculosis) (Mycobacterium tuberculosis, UniProt P9WPC9)	0.02
CO[C@H](c1ccccc1)[C@@H]1NC(=O)[C@H](C)NC(=O)[C@H](C[C@@H](C)CO)N(C)C(=O)[C@H](Cc2cn(C)c3ccccc23)N(C)C(=O)[C@H](Cc2cn(CCOCCOCCn3cc(C[C@@H]4NC(=O)[C@H](CC(C)C)N(C)C(=O)[C@H](C(C)C)NC(=O)[C@H]([C@H](OC)c5ccccc5)NC(=O)[C@H](C)NC(=O)[C@H](C[C@@H](C)CO)N(C)C(=O)[C@H](Cc5cn(C)c6ccccc56)N(C)C4=O)nn3)nn2)NC(=O)[C@H](CC(C)C)N(C)C(=O)[C@H](C(C)C)NC1=O	ClpC1 NTD protein (M. tuberculosis) (Mycobacterium tuberculosis, UniProt P9WPC9)	0.01
CO[C@H](c1ccccc1)[C@@H]1NC(=O)[C@H](C)NC(=O)[C@H](C[C@@H](C)CO)N(C)C(=O)[C@H](Cc2cn(Cc3cn(CCOCCOCCOCCOCCn4cc(Cn5cc(C[C@H]6C(=O)N(C)[C@@H](C[C@@H](C)CO)C(=O)N[C@@H](C)C(=O)N[C@@H]([C@H](OC)c7ccccc7)C(=O)N[C@@H](C(C)C)C(=O)N(C)[C@@H](CC(C)C)C(=O)N[C@@H](C(C)C)C(=O)N6C)c6ccccc65)nn4)nn3)c3ccccc23)N(C)C(=O)[C@H](C(C)C)NC(=O)[C@H](CC(C)C)N(C)C(=O)[C@H](C(C)C)NC1=O	ClpC1 NTD protein (M. tuberculosis) (Mycobacterium tuberculosis, UniProt P9WPC9)	0.002
C=CCn1cc(C[C@@H]2NC(=O)[C@H](C(C)C)NC(=O)[C@H](CC(C)C)N(C)C(=O)[C@H](C(C)C)NC(=O)[C@H]([C@H](OC)c3ccccc3)NC(=O)[C@H](C)NC(=O)[C@H](C[C@@H](C)CO)N(C)C2=O)c2ccccc21 [Compound 13] (cyclo(A[Phe(βR-OMe)]V[NMeL]V[X7][NMeLeu(5-OH,4R)]))	ClpC1 NTD protein (M. tuberculosis) (Mycobacterium tuberculosis, UniProt P9WPC9)	0.07

Identify koff associated with the compound CO[C@H](c1ccccc1)[C@@H]1NC(=O)[C@H](C)NC(=O)[C@H](C[C@@H](C)CO)N(C)C(=O)[C@H](Cc2cn(C)c3ccccc23)N(C)C(=O)[C@H](CCC(=O)N(C)C)NC(=O)[C@H](CC(C)C)N(C)C(=O)[C@H](C(C)C)NC1=O [SI-76] (cyclo(A[Phe(βR-OMe)]V[NMeL]E(NMe2)[NMeTrp(1-Me)][NMeLeu(5-OH,4R)]))
0.06

Identify koff associated with the compound C#CCOc1ccc([C@@H](OC)[C@@H]2NC(=O)[C@H](C)NC(=O)[C@H](C[C@@H](C)CO)N(C)C(=O)[C@H](Cc3cn(C)c4ccccc34)NC(=O)[C@H](C(C)C)NC(=O)[C@H](CC(C)C)N(C)C(=O)[C@H](C(C)C)NC2=O)cc1 [SI-38] (cyclo(A[X3]V[NMeL]V[Trp(1-Me)][NMeLeu(5-OH,4R)]))
0.06
